Assay: Acute toxicity in the mouse by the I.P. route
Format: in vivo
Settings: in vivo, ip, I.P., read-out: DL-50 (lethal dose involving the death of half of the animals)
Define the label as yes when LD50 is strictly less than 700 mg/kg and as no in all remaining cases.

• O=C(c1ccc(C(F)(F)F)cc1)c1cccc(O[C@@H]2OC[C@@H](O)[C@H](O)[C@H]2O)c1 = yes
• Cc1cc(C(O)c2ccccc2C)ccc1O[C@@H]1OC[C@@H](O)[C@H](O)[C@H]1O (stereo partly drawn) = yes
• O=C(c1ccc(Cl)cc1)c1cccc(O[C@@H]2OC[C@@H](O)[C@H](O)[C@H]2O)c1 = yes

Exercise: Dear colleague, could you confirm whether LD50 of CC(=O)N[C@H]1[C@H](Oc2c(C)cc(C(=O)c3c(C)cccc3C)cc2C)O[C@H](CO)[C@@H](O)[C@@H]1O falls below 700 mg/kg? Thanks.
Key: yes

Exercise: Strictly below 700 mg/kg in LD50? O=C(c1ccc(O[C@@H]2OC[C@@H](O)[C@H](O)[C@H]2O)cc1)c1ccccc1O
Key: no

====

# key: entry, value: LD50
Test: Acute toxicity in the mouse by the I.P. route
Assay type: in vivo
Conditions: in vivo, ip, I.P., read-out: DL-50 (lethal dose involving the death of half of the animals)
From the text: The acute toxicity was studied in the mouse by the I.P. route. It is expressed in the form of DL-50 (lethal dose involving the death of half of the animals) or DL-0 (maximum non-lethal dose).
# number only, unit mg/kg dropped from output

• Cc1ccc(C(=O)c2ccc(O[C@@H]3O[C@H](CO)[C@@H](O)[C@H](O)[C@H]3O)cc2)cc1 = 700
• CC(=O)O[C@@H]1[C@@H](OC(C)=O)[C@H](Oc2c(C)cc(C(=O)c3ccccc3Cl)cc2C)OC[C@H]1OC(C)=O = 630

Exercise: Please report the recorded LD50 for O=C(c1ccc(O[C@@H]2OC[C@@H](O)[C@H](O)[C@H]2O)cc1)c1ccccc1[N+](=O)[O-] .
Key: 600

Exercise: Give its LD50 value. Item: OC(c1ccccc1)c1ccc(O[C@@H]2OC[C@@H](O)[C@H](O)[C@H]2O)cc1 (stereo partly shown)
Key: 1400

====

Listed below: Ulcer index values for each entry.
Assay: Anti-ulcer activity: ulcer caused by aspirin
Type: in vivo, rat (male Wistar)
Conditions: 100 mg/kg I.P.; aspirin 192 mg/kg per os; standardised to control batch and cimetidine (index 1)
Description: The experiment is carried out on male Wistar rats of 180 to 200 g. The products to be tested are administered at 100 mg/kg I.P. (unless indicated to the contrary in Table IV). At t=0, the rats are made to fast and a first administration of the product to be tested is made. At t=18 hours, 2 ml of an ulcer-forming suspension with 192 mg of aspirin/kg are administered per os then a second administration of the product to be tested is made. […]
Provide a numeric answer; units are not to be included.

Example entries and their recorded answers appear below.
* CC(=O)OC[C@H]1O[C@@H](Oc2ccc(C(=O)c3ccc([N+](=O)[O-])cc3)cc2)[C@H](OC(C)=O)[C@@H](OC(C)=O)[C@@H]1OC(C)=O [Example 110] | 0.71
* Cc1cc(C)c(C(=O)c2cccc(O[C@@H]3OC[C@@H](O)[C@H](O)[C@H]3O)c2)c(C)c1 [Example 71] | 0.98
* O=C(c1ccc(O[C@@H]2OC[C@@H](O)[C@H](O)[C@H]2O)cc1)c1cccc([N+](=O)[O-])c1 [Example 2] | 0.84
* O=C(c1ccc(O[C@@H]2OC[C@@H](O)[C@H](O)[C@H]2O)cc1)c1ccc(Cl)cc1Cl [Example 31] | 1.04
* CC(=O)O[C@@H]1[C@@H](OC(C)=O)[C@H](Oc2ccc(C(=O)c3ccc([N+](=O)[O-])cc3)cc2)OC[C@H]1OC(C)=O [Example 41] | 0.40
* O=C(c1ccc(O[C@@H]2OC[C@@H](O)[C@H](O)[C@H]2O)cc1)c1cccc(C(F)(F)F)c1 [Example 13] | 0.46

Exercise: Consider the compound shown here: O=C(c1ccc(O[C@@H]2OC[C@@H](O)[C@H](O)[C@H]2O)cc1)c1ccccc1[N+](=O)[O-] [Example 6] What is its recorded Ulcer index?
Key: 0.45

Exercise: Given Cc1ccccc1C(=O)c1cc(C)c(O[C@@H]2OC[C@@H](O)[C@H](O)[C@H]2O)c(C)c1 [Example 21] , state its recorded Ulcer index.
Key: 0.16

Exercise: # lookup: Ulcer index of CC(=O)O[C@@H]1[C@@H](OC(C)=O)[C@H](Oc2ccc(C(=O)c3ccc([N+](=O)[O-])cc3)cc2C)OC[C@H]1OC(C)=O [Example 104]
Key: 0.84

Exercise: Suppose we examine the compound O=C(c1ccc(O[C@@H]2O[C@H](CO)[C@@H](O)[C@H](O)[C@H]2O)cc1)c1ccc([N+](=O)[O-])cc1 [Example 19] ; what Ulcer index value has been reported?
Key: 0.74

====

Test: Anti-ulcer activity: ulcer caused by aspirin
Assay type: in vivo, rat (male Wistar)
Conditions: 100 mg/kg I.P.; aspirin 192 mg/kg per os; standardised to control batch and cimetidine (index 1)
PROPERTY_NAME: Ulcer index
# output: bare number, no unit

Exercise: Record request: Ulcer index value, item CC(=O)N[C@H]1[C@H](Oc2ccc(C(O)c3ccc(Cl)cc3)cc2)O[C@H](CO)[C@@H](O)[C@@H]1O (stereo partly shown) [Example 100]
Key: 0.35

Exercise: Value lookup for Ulcer index; key = CC(=O)N[C@H]1[C@H](Oc2ccc(C(=O)c3ccc(Cl)cc3)cc2)O[C@H](CO)[C@@H](O)[C@@H]1O [Example 43]
Key: 0.52

Exercise: Dear colleague, I am looking for the recorded Ulcer index of the following compound: CC(=O)O[C@@H]1[C@@H](OC(C)=O)[C@H](Oc2ccc(C(=O)c3ccc(N(C)C)cc3)cc2)OC[C@H]1OC(C)=O [Example 116]
Key: 0.44

====

The following compounds are shown together with reported Ulcer index values.
Assay: Anti-ulcer activity: ulcer caused by aspirin
Assay type: in vivo, rat (male Wistar)
Settings: 100 mg/kg I.P.; aspirin 192 mg/kg per os; standardised to control batch and cimetidine (index 1)
// response body must contain only the number

• CC(=O)O[C@@H]1[C@@H](OC(C)=O)[C@H](Oc2ccc(C(=O)c3ccccc3Cl)cc2)OC[C@H]1OC(C)=O [Example 70] = 0.56
• Cc1ccc(C(=O)c2ccc(O[C@@H]3OC[C@@H](O)[C@H](O)[C@H]3O)cc2)cc1 [Example 12] = 0.26
• CC(=O)N[C@H]1[C@H](Oc2c(C)cc(C(=O)c3ccc([N+](=O)[O-])cc3)cc2C)O[C@H](CO)[C@@H](O)[C@@H]1O [Example 119] = 0.47
• O=C(c1ccc(O[C@@H]2OC[C@@H](OS(=O)(=O)O)[C@H](OS(=O)(=O)O)[C@H]2OS(=O)(=O)O)cc1)c1cccc([N+](=O)[O-])c1 [Example 72] = 0.47
• CC(=O)N[C@H]1[C@H](Oc2ccc(C(=O)c3ccc(C)cc3)cc2)O[C@H](COC(C)=O)[C@@H](OC(C)=O)[C@@H]1OC(C)=O [Example 112] = 0.68
• Nc1ccc(C(=O)c2ccc(O[C@@H]3OC[C@@H](O)[C@H](O)[C@H]3O)cc2)cc1 [Example 8] = 0.25
• CC(=O)N[C@H]1[C@H](Oc2ccc(C(=O)c3ccc([N+](=O)[O-])cc3)cc2)O[C@H](CO)[C@@H](O)[C@@H]1O [Example 44] = 0.385
• Cc1ccccc1C(O)c1ccc(O[C@@H]2OC[C@@H](O)[C@H](O)[C@H]2O)cc1 (some centres unmarked) [Example 89] = 0.88

Exercise: I am curious: what Ulcer index value has been reported for Cc1cc(C)c(C(=O)c2ccc(O[C@@H]3OC[C@@H](O)[C@H](O)[C@H]3O)cc2)c(C)c1 [Example 32] ?
Key: 0.54

Exercise: Any idea what Ulcer index was measured for O=C(c1ccc(O[C@@H]2OC[C@@H](O)[C@H](O)[C@H]2O)cc1)c1ccc([N+](=O)[O-])cc1 [Example 1] ?
Key: 0.56

Exercise: Returns the measured Ulcer index for the input compound. Input: CC(=O)N[C@H]1[C@H](Oc2ccc(C(=O)c3ccc(C(F)(F)F)cc3)cc2)O[C@H](CO)[C@@H](O)[C@@H]1O [Example 118]
Key: 0.53

====

Assay: Anti-ulcer activity: ulcer caused by aspirin
Format: in vivo, rat (male Wistar)
Details: 100 mg/kg I.P.; aspirin 192 mg/kg per os; standardised to control batch and cimetidine (index 1)
Response field label takes satisfied when Ulcer index is strictly below 0.5 and not satisfied in all other cases.

- CC(=O)N[C@H]1[C@H](Oc2ccc(C(=O)c3ccccc3C)cc2)O[C@H](CO)[C@@H](O)[C@@H]1O [Example 121]: satisfied
- O=[N+]([O-])c1ccccc1C(O)c1ccc(O[C@@H]2OC[C@@H](O)[C@H](O)[C@H]2O)cc1 (stereo partly shown) [Example 101]: not satisfied
- COc1ccc(C(=O)c2cccc(O[C@@H]3OC[C@@H](O)[C@H](O)[C@H]3O)c2)cc1 [Example 54]: not satisfied

Exercise: Please state whether Ulcer index is below 0.5 for O=C(c1ccc(O[C@@H]2O[C@H](CO)[C@H](O)[C@H](O)[C@H]2O)cc1)c1ccc([N+](=O)[O-])cc1 [Example 20]
Key: not satisfied

Exercise: Please let me know if CC(=O)N[C@H]1[C@H](Oc2ccc(C(=O)c3ccc([N+](=O)[O-])cc3)cc2)O[C@H](COC(C)=O)[C@@H](OC(C)=O)[C@@H]1OC(C)=O [Example 109] shows Ulcer index below 0.5.
Key: not satisfied

Exercise: Does OC(c1ccccc1)c1cccc(O[C@@H]2OC[C@@H](O)[C@H](O)[C@H]2O)c1 (stereo partly shown) [Example 117] have Ulcer index strictly under 0.5?
Key: not satisfied

Exercise: Decide: Ulcer index of O=[N+]([O-])c1cccc(C(O)c2ccc(O[C@@H]3OC[C@@H](O)[C@H](O)[C@H]3O)cc2)c1 (stereo partly shown) [Example 87] strictly below 0.5?
Key: satisfied

Exercise: Here's an entry: O=C(c1ccc(C(F)(F)F)cc1)c1cccc(O[C@@H]2OC[C@@H](O)[C@H](O)[C@H]2O)c1 [Example 53] . Is its Ulcer index below 0.5?
Key: not satisfied

Exercise: Check if Ulcer index falls below 0.5 for CC(=O)N[C@H]1[C@H](Oc2c(C)cc(C(=O)c3c(C)cccc3C)cc2C)O[C@H](CO)[C@@H](O)[C@@H]1O [Example 37] .
Key: not satisfied

Exercise: Dear reviewer, please state whether COc1cccc(C(=O)c2ccc(O[C@@H]3OC[C@@H](O)[C@H](O)[C@H]3O)cc2)c1 [Example 16] has Ulcer index strictly beneath 0.5.
Key: not satisfied

Exercise: Please let me know if O=C(c1ccc(Cl)cc1)c1cccc(O[C@@H]2OC[C@@H](O)[C@H](O)[C@H]2O)c1 [Example 48] shows Ulcer index below 0.5.
Key: not satisfied

Exercise: Does the reported Ulcer index of CC(=O)O[C@@H]1[C@@H](OC(C)=O)[C@H](Oc2ccc(C(=O)c3ccc(C)cc3)cc2)OC[C@H]1OC(C)=O [Example 76] stay below 0.5?
Key: satisfied

Exercise: Ulcer index strictly < 0.5 for this compound? CC(=O)N[C@H]1[C@H](Oc2ccc(C(=O)c3ccc(C)cc3)cc2)O[C@H](CO)[C@@H](O)[C@@H]1O [Example 111]
Key: satisfied

Exercise: Regarding OC(c1ccc(Br)cc1)c1ccc(O[C@@H]2OC[C@@H](O)[C@H](O)[C@H]2O)cc1 (stereo partly shown) [Example 95] , kindly confirm whether its Ulcer index is beneath 0.5.
Key: not satisfied

Exercise: Please determine if Cc1cc(C(=O)c2ccc([N+](=O)[O-])cc2)cc(C)c1O[C@@H]1OC[C@@H](O)[C@H](O)[C@H]1O [Example 23] is below 0.5 in terms of Ulcer index.
Key: not satisfied

Exercise: Just wondering, is Ulcer index of CC(=O)N[C@H]1[C@H](Oc2ccc(C(=O)c3ccc(Cl)cc3)cc2)O[C@H](COS(=O)(=O)O)[C@@H](OS(=O)(=O)O)[C@@H]1OS(=O)(=O)O [Example 67] below 0.5?
Key: not satisfied

Exercise: Quick check: Ulcer index of CC(=O)O[C@@H]1[C@@H](OC(C)=O)[C@H](Oc2ccc(C(=O)c3cccc(C(F)(F)F)c3)cc2)OC[C@H]1OC(C)=O [Example 108] under 0.5?
Key: satisfied
